tested on: T1, COVID S1 RBM Fc fusion (Antigen 2) (SARS-CoV-2, UniProt P0DTC2 437-508)
T1 construct: domain: RBM
measurement notes: phage ELISA
measured quantity: specificity ELISA, fold over background (fold over background)
Answers are plain numbers, in fold over background.

>  <binder>
SARS-CoV-2 variant 1-8 (antibody, V domains shown) VH: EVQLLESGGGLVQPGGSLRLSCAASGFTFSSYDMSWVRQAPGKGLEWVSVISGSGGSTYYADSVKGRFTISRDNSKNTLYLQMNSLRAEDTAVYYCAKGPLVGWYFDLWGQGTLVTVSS VL: QSALTQPASVSGSPGQSITISCTGTSNDVGSYNLVSWYQQHPGKAPKLMIYEGSKRPSGVSNRFSGSKSGNTASLTISGLQAEDEADYYCCSYAGSRYVVFGGGTKLTVL

>  <measured>
1.2

$$$$

Please supply specificity ELISA, fold over background for each of the following items, keeping them in order.
1. SARS-CoV-2 variant 1-20 (antibody, V domains shown) VH: EVQLLESGGGLVQPGGSLRLSCAASGITFSSYAMSWVRQAPGKGLEWVSGISGSGGSTYYADSVKGRFTISRDNSKNTLYLQMNSLRAEDTAVYYCANHGSGTIFGVVIAKYYFDYWGQGTLVTVSS VL: QSALTQPASVSGSPGQSITISCTGTSSDVGHYNLVSWYQQHPGKAPKLMIYEGTKRPSGVSNRFSGSKSGNTASLTISGLQAEDEADYYCCSYAGSSSFVVFGGGTKLTVL
2. SARS-CoV-2 variant 1-4 (antibody, V domains shown) VH: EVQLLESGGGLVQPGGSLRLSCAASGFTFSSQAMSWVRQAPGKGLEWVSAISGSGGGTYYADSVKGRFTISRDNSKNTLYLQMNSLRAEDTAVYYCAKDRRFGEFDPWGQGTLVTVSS VL: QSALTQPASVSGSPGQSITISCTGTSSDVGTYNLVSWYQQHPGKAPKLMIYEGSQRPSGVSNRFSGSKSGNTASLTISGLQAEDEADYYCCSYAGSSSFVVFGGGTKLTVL
3. SARS-CoV-2 variant 1-50 (antibody, V domains shown) VH: EVQLLESGGGLVQPGGSLRLSCAASGFTFSSYDMSWVRQAPGKGLEWVSAISGSGGTTYYADSVKGRFTISRDNSKNTLYLQMNSLRAEDTAVYYCARGPLDFWGQGTLVTVSS VL: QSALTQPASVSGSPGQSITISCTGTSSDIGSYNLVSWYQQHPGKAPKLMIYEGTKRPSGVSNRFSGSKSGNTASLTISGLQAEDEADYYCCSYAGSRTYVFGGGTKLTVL

RESULT:
1. 0.8
2. 1.1
3. 0.8

Recorded values, source patent US20210395344A1.
